Entries annotated with measured Percent Effect
- Tgt: Arginase-2, mitochondrial (Homo sapiens) (UniProt P78540)
- Sequence (whole entry): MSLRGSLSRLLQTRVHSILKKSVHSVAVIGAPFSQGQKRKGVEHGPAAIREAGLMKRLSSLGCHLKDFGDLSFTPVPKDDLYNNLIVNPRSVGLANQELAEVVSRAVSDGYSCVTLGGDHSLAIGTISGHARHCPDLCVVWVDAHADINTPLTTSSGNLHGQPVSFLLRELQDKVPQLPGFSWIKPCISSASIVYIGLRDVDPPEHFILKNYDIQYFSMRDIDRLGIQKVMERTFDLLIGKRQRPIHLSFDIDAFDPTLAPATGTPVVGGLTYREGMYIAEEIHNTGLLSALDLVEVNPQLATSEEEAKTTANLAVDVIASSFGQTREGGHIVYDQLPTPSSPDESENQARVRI
- Test summary: in vitro enzyme assay to detect the production of urea directly proportional to the activity of Arginase II; note: in the data most compounds retested in dose-response had high values
- Assay type: functional
- Design: scale not given: direction of the effect not stated beside the values
- Condition details: 33.3 µM
Answer with a number only, understood to be in %.

Some solved entries appear below for comparison.
INSERT INTO results (compound, value_reported) VALUES
  ('COc1ccc(-c2nnc(SCC(=O)NCC(C)C)[nH]2)c(OC)c1', 4.73),
  ('CN(C)C(=O)N1C[C@H]2CN(Cc3cccc(F)c3)C(=O)[C@H]2C1', 0.955);

Turning now to a further record.
Query: Return Percent Effect (reported value) for this compound: COc1cc(C)c(CN2CCC3(CC2)C(C(=O)O)CC(=O)N3C)cc1C (stereo unspecified)
Reply: 6.77

----------
- Tgt: AMP-activated protein kinase, AMPK (Homo sapiens) (UniProt P54646+O43741+P54619+Q9UGJ0+Q9Y478+Q13131+Q9UGI9)
- Test summary: AMP-dependent Kinase enzyme assay. An in vitro enzyme assay that detects ADP turnover that is directly proportional to AMPK activity. This uses naive AMPK that is activated during the assay with MK-8722
- Format: functional
- Design: scale not given: direction of the effect not stated beside the values
- Condition details: 30 µM
Result type: Percent Effect (%)
Answer with a number only, understood to be in %.

Some solved entries appear below for comparison.
INSERT INTO assay_data (compound, result_type, unit_of_measure, value_reported) VALUES
  ('O=C(c1cnc(-c2cccs2)s1)N1CCCN2CCCC2C1 (stereo unspecified)', 'Percent Effect', '%', -8.71),
  ('CCNc1cc2c(nn1)CCN(C(=O)c1ccc(NC3CC3)nc1)C2', 'Percent Effect', '%', -3.65);

Query: Return Percent Effect (reported value) for this compound: O=C(c1ccncc1)N1CCC(O)(Cn2ccc3ccncc32)CC1
Reply: 7.19

Query: Return Percent Effect (reported value) for this compound: CC(O)CN1CCN(C(=O)c2cc3ccccc3[nH]c2=O)CC1 (stereo unspecified)
Reply: -2.27

----------
- Tgt: Chromo domain-containing protein 1 (Saccharomyces cerevisiae (strain ATCC 204508 / S288c) (Baker's yeast)) (UniProt P32657)
- Sequence (P32657 whole entry, the tested form may be a part): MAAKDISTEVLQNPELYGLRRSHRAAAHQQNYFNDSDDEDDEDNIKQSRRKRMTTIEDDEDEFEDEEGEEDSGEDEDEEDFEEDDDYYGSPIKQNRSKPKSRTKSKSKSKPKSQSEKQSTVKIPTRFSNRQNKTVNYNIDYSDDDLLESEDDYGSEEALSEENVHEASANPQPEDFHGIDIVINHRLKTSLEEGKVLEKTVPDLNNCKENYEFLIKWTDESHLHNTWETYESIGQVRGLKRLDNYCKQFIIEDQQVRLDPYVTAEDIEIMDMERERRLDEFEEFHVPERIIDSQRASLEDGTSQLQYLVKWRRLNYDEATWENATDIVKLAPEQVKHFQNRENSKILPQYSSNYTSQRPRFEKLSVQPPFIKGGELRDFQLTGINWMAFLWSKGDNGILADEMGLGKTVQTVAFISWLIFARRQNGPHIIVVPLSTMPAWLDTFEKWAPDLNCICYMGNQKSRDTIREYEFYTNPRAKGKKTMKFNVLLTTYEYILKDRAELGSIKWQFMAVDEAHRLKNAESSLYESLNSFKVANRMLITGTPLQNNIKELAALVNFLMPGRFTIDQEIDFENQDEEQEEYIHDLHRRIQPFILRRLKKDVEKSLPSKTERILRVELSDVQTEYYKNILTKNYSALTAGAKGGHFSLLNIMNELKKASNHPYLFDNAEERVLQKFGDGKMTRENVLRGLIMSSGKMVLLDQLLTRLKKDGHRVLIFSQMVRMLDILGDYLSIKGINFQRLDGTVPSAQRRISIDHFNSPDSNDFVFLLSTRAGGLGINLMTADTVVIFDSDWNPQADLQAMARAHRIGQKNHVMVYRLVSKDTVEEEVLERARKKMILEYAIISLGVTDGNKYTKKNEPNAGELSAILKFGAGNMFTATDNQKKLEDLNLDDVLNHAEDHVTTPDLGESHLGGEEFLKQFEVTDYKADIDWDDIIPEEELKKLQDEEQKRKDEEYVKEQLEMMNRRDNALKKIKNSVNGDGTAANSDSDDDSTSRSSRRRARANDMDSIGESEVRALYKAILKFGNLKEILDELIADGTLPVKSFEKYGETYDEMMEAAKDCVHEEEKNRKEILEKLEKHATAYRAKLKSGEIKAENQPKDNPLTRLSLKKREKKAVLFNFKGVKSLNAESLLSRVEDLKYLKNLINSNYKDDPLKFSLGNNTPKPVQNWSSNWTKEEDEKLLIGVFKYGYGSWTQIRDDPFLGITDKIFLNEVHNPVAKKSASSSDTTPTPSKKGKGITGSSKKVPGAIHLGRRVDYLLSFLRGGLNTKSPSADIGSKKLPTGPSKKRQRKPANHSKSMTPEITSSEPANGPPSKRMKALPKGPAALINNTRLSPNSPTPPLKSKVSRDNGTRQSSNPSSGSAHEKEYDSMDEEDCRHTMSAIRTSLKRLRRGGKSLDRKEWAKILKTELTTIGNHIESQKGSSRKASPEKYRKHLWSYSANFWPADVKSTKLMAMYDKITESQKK
- Test summary: ScCHD-1 Enzyme Inhibition Assay; note: in the data most compounds retested in dose-response had high values
- Type: functional
- Parameters: scale not given: direction of the effect not stated beside the values
- Condition details: 30 µM
Entries annotated with measured Percent Effect
Answer with a number only, understood to be in %.

Some solved entries appear below for comparison.
INSERT INTO results (molecule, value_reported) VALUES
  ('COCCNC(=O)c1sc(Nc2ccc(Cl)cn2)nc1C', -10.7),
  ('Cc1noc([C@@]23CCO[C@@H]2CCN(CC2CCOCC2)C3)n1', -7.02);

Query: Return Percent Effect (reported value) for this molecule: Cc1cc(C)c(CNC(=O)N2CCCC2c2ccccc2)c(=O)[nH]1 (configuration not stated)
Reply: -23.8

Query: Return Percent Effect (reported value) for this molecule: CC(=O)N1CCN(c2cc(C3CN(C)CCO3)nc(C)n2)CC1 (configuration not stated)
Reply: -1.64

Query: Return Percent Effect (reported value) for this molecule: CN(C)c1cc(CNC(=O)c2ccc(=O)[nH]n2)ccn1
Reply: -19.7

Query: Return Percent Effect (reported value) for this molecule: O=C(Nc1ccccc1)C1CN(CC2CC2)CC12CCOCC2 (configuration not stated)
Reply: -4.82

Query: Return Percent Effect (reported value) for this molecule: Cc1noc(C)c1CN1CC2(CCN(C(=O)c3c[nH]cn3)C2)CC1=O (configuration not stated)
Reply: -4.57

Query: Return Percent Effect (reported value) for this molecule: CCCc1n[nH]c(C2CN(CCCS(C)(=O)=O)CCO2)n1 (configuration not stated)
Reply: -22.8

Query: Return Percent Effect (reported value) for this molecule: O=C(NC[C@]12COC[C@H]1CN(Cc1nccs1)C2)c1ccccc1
Reply: -9.52

Query: Return Percent Effect (reported value) for this molecule: Cc1n[nH]c(C2CN(C(=O)c3cc(C4CC4)[nH]n3)CCO2)n1 (configuration not stated)
Reply: -11.2

Query: Return Percent Effect (reported value) for this molecule: O=C(NCC1CC1)[C@H]1C[C@H]2OCC[C@H]2N(Cc2ccoc2)C1
Reply: -0.46
